Measured values drawn from PubChem BioAssay AID588456 for this set.

Molecular target: Thioredoxin reductase 1, cytoplasmic (Rattus norvegicus)
Assay: qHTS Assay for Substrates of Mammalian Selenoprotein Thioredoxin Reductase 1 (TrxR1): qHTS; further: on the % scale 0 is the no-effect control and ±100 the full control effect; nearly all actives have a fitted effect of over 50% in size
Conditions: purified TrxR1 substrate turnover, NADPH consumption readout; series mostly up to 114 µM
Hit rate of the full screen: of about 390,000 compounds, about 55 (0.01%) were called active. Only a sample is shown.
Property name: activity change, negative = substrate turnover

>  <Compound>
CN(C)c1cc2c(Nc3ccc4c(cnn4Cc4ccccc4)c3)ncnc2cn1

>  <Test value>
inactive

$$$$
>  <Compound>
CC1CC(C)CN(c2oc(-c3ccc(OCc4ccc(Cl)cc4)cc3)nc2C#N)C1 (stereo not given)

>  <Test value>
6.36% [at 0.0914 µM] (inactive)

$$$$
>  <Compound>
COC(=O)C1=C(C(=O)OC)[C@@H]2N(Cc3ccccc3)c3ccccc3[C@@]23C[C@@H](C(=O)OC)N(S(=O)(=O)c2ccc(C(F)(F)F)cc2)C3=N1

>  <Test value>
inactive

$$$$
>  <Compound>
O=C(Nc1ccc(Cl)cc1)c1cnn2c1NC(=C1CC1)C=C2C(F)F

>  <Test value>
inactive

$$$$
>  <Compound>
Cc1ccc(NC(=O)c2ccc3[nH]c(C)cc(=O)c3c2)c(C)c1

>  <Test value>
inactive

$$$$
